- System: Rabbit Skeletal myofibrils (rabbit psoas muscle)
- procedure.text: Myofibril ATPase assay (PK/LDH NADH-coupled), skeletal myofibrils
- Assay type: biochemical
- condition.context: Table 8
Exercise: for every item that follows, state its recorded Rabbit Psoas IC25.
Respond with the figure and its unit, in that order.

# molecule, experimental.target, Rabbit Psoas IC25
rows = [
    ("Cc1nc(C#N)cnc1[C@@H](C)NC(=O)CN1C(=O)Nc2ccc(F)c(F)c2C12CC2", "Rabbit Skeletal myofibrils (rabbit psoas muscle)", "2.34 µM"),
    ("C[C@@H](NC(=O)CN1Cc2c(F)cccc2NC1=O)c1ccc(C#N)cc1F", "Rabbit Skeletal myofibrils (rabbit psoas muscle)", "0.09089 µM"),
    ("C[C@H](NC(=O)CN1Cc2c(F)cc(F)cc2NC1=O)c1ccc(C#N)cc1F", "Rabbit Skeletal myofibrils (rabbit psoas muscle)", "0.0158 µM"),
]

Please supply Rabbit Psoas IC25 for each of the following items, keeping them in order.
1. C[C@@H](NC(=O)CN1Cc2c(ccc(F)c2F)NC1=O)c1cc2ccccc2cn1
2. C[C@H](NC(=O)CN1Cc2c(ccc(F)c2F)NC1=O)c1ncc(F)cc1Cl

Result:
1: 100.00 µM; 2: 0.3844 µM

Please supply Rabbit Psoas IC25 for each of the following items, keeping them in order.
1. CC(NC(=O)CN1Cc2c(ccc(F)c2F)NC1=O)c1cc(C#N)c(F)cn1 (single isomer, unassigned)
2. C[C@H](NC(=O)[C@@H](C)N1Cc2c(F)cccc2NC1=O)c1ccc(F)cc1F
3. C[C@@H](NC(=O)CN1Cc2cc(F)ccc2NC1=O)c1ncc(C#N)cc1F
4. O=C(CN1Cc2cc(F)ccc2NC1=O)N[C@@H](CO)c1ncc(F)cc1F
5. C[C@H](NC(=O)CN1Cc2c(ccc(F)c2F)NC1=O)c1ncnc(C#N)c1F
6. C[C@H](NC(=O)CN1Cc2c(ccc(F)c2F)NC1=O)c1ncc(Cl)cc1F
7. O=C(CN1Cc2c(ccc(F)c2F)NC1=O)N[C@H]1CCc2cc(F)cnc21 (single isomer, unassigned)
8. Cc1cc(F)cc2c1CN(CC(=O)N[C@@H](C)c1ccc(C#N)cc1F)C(=O)N2

Result:
["100 µM", "1.426 µM", "100 µM", "0.242 µM", "2.45 µM", "0.0183 µM", "100.00 µM", "0.0139 µM"]

Please supply Rabbit Psoas IC25 for each of the following items, keeping them in order.
1. C[C@H](NC(=O)[C@H](C)N1Cc2c(Br)cccc2NC1=O)c1ccc(F)cc1F
2. O=C(CN1Cc2c(ccc(F)c2F)NC1=O)N[C@@H]1COCc2cc(F)cc(F)c21
3. Cc1nc([C@@H](C)NC(=O)CN2Cc3c(ccc(F)c3F)NC2=O)cnc1C#N
4. C[C@@H](NC(=O)CN1Cc2c(ccc(F)c2F)NC1=O)c1cc2c(cn1)N(C)CCO2

Result:
0.0127 µM
0.0143 µM
17.15 µM
100.00 µM

Please supply Rabbit Psoas IC25 for each of the following items, keeping them in order.
1. CC(NC(=O)CN1Cc2cc(C#N)ccc2NC1=O)c1ncc(C#N)cc1F (stereo not drawn)
2. C[C@@H](NC(=O)CN1Cc2c(ccc(F)c2F)NC1=O)c1ccc2ncccc2n1

Result:
["100 µM", "40.68 µM"]

Please supply Rabbit Psoas IC25 for each of the following items, keeping them in order.
1. C[C@@H](NC(=O)CN1Cc2c(ccc(F)c2F)NC1=O)c1cc(C#N)c(F)cn1
2. O=C(CN1Cc2c(ccc(F)c2F)NC1=O)N[C@H]1COc2cc(F)cnc21
3. Cc1nc(C#N)cnc1[C@@H](CO)NC(=O)CN1Cc2c(ccc(F)c2F)NC1=O
4. Cc1nc(C#N)ncc1[C@H](C)NC(=O)CN1C(=O)Nc2ccc(F)cc2C12CC2
5. C[C@H](NC(=O)[C@H](C)N1Cc2c(ccc(F)c2F)NC1=O)c1ncc(C#N)cc1F

Result:
1. 3.964 µM
2. 29.14 µM
3. 68.36 µM
4. 100.00 µM
5. 0.03 µM

---

- Tested on: Rabbit Skeletal myofibrils (rabbit psoas muscle)
- procedure.text: Myofibril ATPase assay (PK/LDH NADH-coupled), skeletal myofibrils
- Assay type: biochemical
- condition.context: Table 7
parameter.measured: Rabbit Psoas IC25 (nM)
Give bare numbers, in nM.

Worked examples, 3 compounds total:
# compound, unit.label, Rabbit Psoas IC25
data = [
    ("C[C@H](NC(=O)CN1Cc2c(C#N)cncc2NC1=O)c1ncc(F)cc1F", "nM", 1979),
    ("C[C@H](NC(=O)CN1Cc2c(ccnc2C(F)(F)F)NC1=O)c1ccc(C#N)cc1F", "nM", 75.65),
    ("N#Cc1nccc2c1CN(CC(=O)N[C@H]1COc3cc(F)cc(F)c31)C(=O)N2", "nM", 327.1),
]

Please supply Rabbit Psoas IC25 for each of the following items, keeping them in order.
1. C[C@H](NC(=O)[C@H](C)N1Cc2c(ccnc2Cl)NC1=O)c1ccc(F)cc1F
2. C[C@H](NC(=O)[C@@H](C)N1Cc2c(ccnc2Br)NC1=O)c1ccc(F)cc1F

Result:
[289.2, 956.5]

---

Exercise: for every item that follows, state its recorded Porcine Atria IC25.
- System: Porcine Atria myofibrils
- procedure.text: Myofibril ATPase assay (PK/LDH NADH-coupled), atria myofibrils
- Type: biochemical
- condition.context: Table 7
Numbers only, in µM.

Worked examples, 2 compounds total:
# molecule, unit.label, quantitative.readout
rows = [
    ("COc1ccc2c(n1)C1(CC1)N(CC(=O)N[C@@H](C)c1ccc(F)cc1F)C(=O)N2", "µM", 0.03),
    ("C[C@H](NC(=O)CN1C(=O)Nc2ccc(C#N)nc2C12CC2)c1ccc(F)cc1F", "µM", 0.07),
]

Please supply Porcine Atria IC25 for each of the following items, keeping them in order.
1. N#Cc1cnc2c(n1)CC[C@@H]2NC(=O)CN1C(=O)Nc2ccc(C#N)nc2C12CC2
2. C[C@H](NC(=O)[C@H](C)N1Cc2nc(F)ccc2NC1=O)c1ccc(F)cc1
3. C[C@H](NC(=O)CN1Cc2nc(Cl)ccc2NC1=O)c1ccc(F)cc1F

Result:
[0.29, 0.36, 0.17]

---

- experimental.target: Porcine Ventricle myofibrils (left ventricle of Yucatan minipigs) (Sus scrofa)
- Construct: Myofibrils from porcine cardiac muscle was isolated from the left ventricle of Yucatan minipigs; tissue Exemplar Genetics; host or cells: left ventricle of Yucatan minipigs
- Sequence (P79293 whole entry): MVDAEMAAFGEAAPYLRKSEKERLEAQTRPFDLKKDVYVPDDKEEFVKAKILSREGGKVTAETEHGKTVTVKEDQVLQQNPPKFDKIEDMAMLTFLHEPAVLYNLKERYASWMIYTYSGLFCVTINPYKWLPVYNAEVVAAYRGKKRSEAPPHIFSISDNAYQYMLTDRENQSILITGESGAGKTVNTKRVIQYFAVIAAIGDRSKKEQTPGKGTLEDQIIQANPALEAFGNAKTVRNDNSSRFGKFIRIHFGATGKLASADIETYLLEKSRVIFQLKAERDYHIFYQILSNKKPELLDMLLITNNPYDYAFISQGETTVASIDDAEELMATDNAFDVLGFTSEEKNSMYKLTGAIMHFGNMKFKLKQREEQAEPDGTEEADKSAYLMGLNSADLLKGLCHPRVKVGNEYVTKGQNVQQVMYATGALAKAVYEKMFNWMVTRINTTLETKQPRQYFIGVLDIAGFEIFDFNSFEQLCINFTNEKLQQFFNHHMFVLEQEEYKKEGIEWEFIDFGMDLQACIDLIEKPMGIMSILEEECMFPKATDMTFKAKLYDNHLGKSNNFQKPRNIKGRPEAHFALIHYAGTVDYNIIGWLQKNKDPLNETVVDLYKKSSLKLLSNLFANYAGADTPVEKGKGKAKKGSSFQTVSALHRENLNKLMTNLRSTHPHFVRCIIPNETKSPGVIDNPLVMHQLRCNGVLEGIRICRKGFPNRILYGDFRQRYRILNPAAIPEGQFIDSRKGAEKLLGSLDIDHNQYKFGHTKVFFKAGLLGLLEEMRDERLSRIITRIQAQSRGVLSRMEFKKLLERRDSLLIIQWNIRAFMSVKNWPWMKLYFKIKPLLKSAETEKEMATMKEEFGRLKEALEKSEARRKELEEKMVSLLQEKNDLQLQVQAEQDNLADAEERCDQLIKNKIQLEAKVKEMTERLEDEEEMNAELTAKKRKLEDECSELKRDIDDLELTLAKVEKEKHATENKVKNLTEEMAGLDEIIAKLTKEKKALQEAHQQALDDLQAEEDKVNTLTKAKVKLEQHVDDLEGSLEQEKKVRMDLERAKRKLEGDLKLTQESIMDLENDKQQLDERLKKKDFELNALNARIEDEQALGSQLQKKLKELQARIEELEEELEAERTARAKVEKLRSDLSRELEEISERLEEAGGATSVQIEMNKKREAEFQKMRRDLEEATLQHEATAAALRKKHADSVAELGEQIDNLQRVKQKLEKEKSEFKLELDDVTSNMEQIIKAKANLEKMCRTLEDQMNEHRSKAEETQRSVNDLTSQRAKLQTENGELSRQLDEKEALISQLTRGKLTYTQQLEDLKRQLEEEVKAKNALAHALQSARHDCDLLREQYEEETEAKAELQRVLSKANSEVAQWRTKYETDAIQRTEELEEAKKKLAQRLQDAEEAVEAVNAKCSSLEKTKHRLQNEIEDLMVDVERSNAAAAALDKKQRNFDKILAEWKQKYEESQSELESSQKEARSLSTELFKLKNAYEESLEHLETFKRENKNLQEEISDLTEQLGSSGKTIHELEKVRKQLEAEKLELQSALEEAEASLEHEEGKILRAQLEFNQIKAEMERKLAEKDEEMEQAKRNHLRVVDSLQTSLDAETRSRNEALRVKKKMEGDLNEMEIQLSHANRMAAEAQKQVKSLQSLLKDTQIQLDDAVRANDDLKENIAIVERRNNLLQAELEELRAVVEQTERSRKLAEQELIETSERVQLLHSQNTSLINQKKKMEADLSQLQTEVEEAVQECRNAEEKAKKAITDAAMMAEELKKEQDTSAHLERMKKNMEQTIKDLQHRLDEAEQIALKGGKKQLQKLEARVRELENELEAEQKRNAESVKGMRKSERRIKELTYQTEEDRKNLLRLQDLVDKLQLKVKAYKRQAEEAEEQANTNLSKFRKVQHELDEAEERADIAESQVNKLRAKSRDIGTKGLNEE
- procedure.text: Myofibril ATPase assay (PK/LDH NADH-coupled), ventricle myofibrils
- Assay type: biochemical
- condition.context: Table 8
Use 2 µM as the dividing line for Porcine Ventricle IC25, with the line itself on the Fulfilled side and lower values as Not fulfilled.

Example results:
# compound, qualitative.label
measured = [
    ("COc1cccnc1[C@H](C)NC(=O)CN1Cc2c(ccc(F)c2F)NC1=O", "Fulfilled"),
    ("C[C@H](C(=O)N[C@H](CO)c1ncc(F)cc1F)N1Cc2c(Cl)cccc2NC1=O", "Fulfilled"),
    ("C[C@@H](NC(=O)C1(N2Cc3c(ccc(F)c3F)NC2=O)CC1)c1ncc(C#N)cc1F", "Fulfilled"),
    ("N#Cc1cnc2c(c1)CC[C@H]2NC(=O)CN1C(=O)Nc2ccc(F)cc2C12CC2", "Fulfilled"),
    ("Cc1nc(C#N)cnc1[C@@H](C)NC(=O)CN1C(=O)Nc2ccc(F)c(F)c2C12CC2", "Fulfilled"),
]

Q: Does the compound Cc1cc([C@H](C)NC(=O)CN2Cc3c(ccc(F)c3F)NC2=O)ncc1C#N (single isomer, unassigned) have recorded Porcine Ventricle IC25 that is 2 µM or more?
Result: Not fulfilled

Q: Does the compound O=C(CN1Cc2c(ccc(F)c2F)NC1=O)N[C@H]1COc2ccc(F)cc2C1 have recorded Porcine Ventricle IC25 that is 2 µM or more?
Result: Fulfilled

---

- Test system: Rabbit Skeletal myofibrils (rabbit psoas muscle)
- procedure.text: Myofibril ATPase assay (PK/LDH NADH-coupled), skeletal myofibrils
- Type: biochemical
- condition.context: Table 7
- Procedure: Myofibril ATPase assays are known in the art to be useful in evaluating small molecules for the treatment of HCM and other cardiac indications. Myosin ATPase activity is assessed by using a coupled reaction system, in which ADP generated by the myosin ATPase function is coupled to the disappearance of NADH through the pyruvate kinase/lactate dehydrogenase (PK-LDH) system. ATPase activity produces ADP, which is used as a substrate for PK to produce pyruvate and regenerate ATP. […]
Exercise: for every item that follows, state its recorded Rabbit Psoas IC25.
Answers are plain numbers, in µM.

# molecule, parameter.measured, quantitative.readout
measured = [
    ("COc1ccc2c(n1)CN([C@H](C)C(=O)N[C@@H](C)c1ccc(F)cc1F)C(=O)N2", "Rabbit Psoas IC25", 3.732),
]

Please supply Rabbit Psoas IC25 for each of the following items, keeping them in order.
1. Cc1cc(F)ccc1[C@H](C)NC(=O)CN1Cc2cnccc2NC1=O
2. C[C@H](NC(=O)CN1Cc2nc(C#N)ccc2NC1=O)c1ncc(F)cc1F
3. C[C@@H](NC(=O)CN1C(=O)Nc2ccc(C#N)nc2C12CC2)c1ncc(F)cc1F
4. C[C@H](NC(=O)CN1Cc2nc(Cl)ccc2NC1=O)c1ccc(F)cc1F
5. N#Cc1cnc2c(n1)CC[C@@H]2NC(=O)CN1C(=O)Nc2ccc(C#N)nc2C12CC2
6. C[C@H](NC(=O)CN1Cc2cc(Cl)cnc2NC1=O)c1ccc(F)cc1F

Result:
1: 1.636; 2: 100; 3: 100; 4: 0.0146; 5: 100.00; 6: 100
